target: ATR kinase (full-length ATR) (Homo sapiens); construct: Assays were carried out at 25° C. in the presence of 5 nM full-length ATR; experiment: ATR Inhibition Assay (radioactive-phosphate incorporation); type: biochemical; settings: Ki(app); 5 nM full-length ATR, 10 μM ATP, 800 μM target peptide, 25° C.; class symbols; read-out: ATR Inhibition Ki
Sequence (Q13535 whole entry): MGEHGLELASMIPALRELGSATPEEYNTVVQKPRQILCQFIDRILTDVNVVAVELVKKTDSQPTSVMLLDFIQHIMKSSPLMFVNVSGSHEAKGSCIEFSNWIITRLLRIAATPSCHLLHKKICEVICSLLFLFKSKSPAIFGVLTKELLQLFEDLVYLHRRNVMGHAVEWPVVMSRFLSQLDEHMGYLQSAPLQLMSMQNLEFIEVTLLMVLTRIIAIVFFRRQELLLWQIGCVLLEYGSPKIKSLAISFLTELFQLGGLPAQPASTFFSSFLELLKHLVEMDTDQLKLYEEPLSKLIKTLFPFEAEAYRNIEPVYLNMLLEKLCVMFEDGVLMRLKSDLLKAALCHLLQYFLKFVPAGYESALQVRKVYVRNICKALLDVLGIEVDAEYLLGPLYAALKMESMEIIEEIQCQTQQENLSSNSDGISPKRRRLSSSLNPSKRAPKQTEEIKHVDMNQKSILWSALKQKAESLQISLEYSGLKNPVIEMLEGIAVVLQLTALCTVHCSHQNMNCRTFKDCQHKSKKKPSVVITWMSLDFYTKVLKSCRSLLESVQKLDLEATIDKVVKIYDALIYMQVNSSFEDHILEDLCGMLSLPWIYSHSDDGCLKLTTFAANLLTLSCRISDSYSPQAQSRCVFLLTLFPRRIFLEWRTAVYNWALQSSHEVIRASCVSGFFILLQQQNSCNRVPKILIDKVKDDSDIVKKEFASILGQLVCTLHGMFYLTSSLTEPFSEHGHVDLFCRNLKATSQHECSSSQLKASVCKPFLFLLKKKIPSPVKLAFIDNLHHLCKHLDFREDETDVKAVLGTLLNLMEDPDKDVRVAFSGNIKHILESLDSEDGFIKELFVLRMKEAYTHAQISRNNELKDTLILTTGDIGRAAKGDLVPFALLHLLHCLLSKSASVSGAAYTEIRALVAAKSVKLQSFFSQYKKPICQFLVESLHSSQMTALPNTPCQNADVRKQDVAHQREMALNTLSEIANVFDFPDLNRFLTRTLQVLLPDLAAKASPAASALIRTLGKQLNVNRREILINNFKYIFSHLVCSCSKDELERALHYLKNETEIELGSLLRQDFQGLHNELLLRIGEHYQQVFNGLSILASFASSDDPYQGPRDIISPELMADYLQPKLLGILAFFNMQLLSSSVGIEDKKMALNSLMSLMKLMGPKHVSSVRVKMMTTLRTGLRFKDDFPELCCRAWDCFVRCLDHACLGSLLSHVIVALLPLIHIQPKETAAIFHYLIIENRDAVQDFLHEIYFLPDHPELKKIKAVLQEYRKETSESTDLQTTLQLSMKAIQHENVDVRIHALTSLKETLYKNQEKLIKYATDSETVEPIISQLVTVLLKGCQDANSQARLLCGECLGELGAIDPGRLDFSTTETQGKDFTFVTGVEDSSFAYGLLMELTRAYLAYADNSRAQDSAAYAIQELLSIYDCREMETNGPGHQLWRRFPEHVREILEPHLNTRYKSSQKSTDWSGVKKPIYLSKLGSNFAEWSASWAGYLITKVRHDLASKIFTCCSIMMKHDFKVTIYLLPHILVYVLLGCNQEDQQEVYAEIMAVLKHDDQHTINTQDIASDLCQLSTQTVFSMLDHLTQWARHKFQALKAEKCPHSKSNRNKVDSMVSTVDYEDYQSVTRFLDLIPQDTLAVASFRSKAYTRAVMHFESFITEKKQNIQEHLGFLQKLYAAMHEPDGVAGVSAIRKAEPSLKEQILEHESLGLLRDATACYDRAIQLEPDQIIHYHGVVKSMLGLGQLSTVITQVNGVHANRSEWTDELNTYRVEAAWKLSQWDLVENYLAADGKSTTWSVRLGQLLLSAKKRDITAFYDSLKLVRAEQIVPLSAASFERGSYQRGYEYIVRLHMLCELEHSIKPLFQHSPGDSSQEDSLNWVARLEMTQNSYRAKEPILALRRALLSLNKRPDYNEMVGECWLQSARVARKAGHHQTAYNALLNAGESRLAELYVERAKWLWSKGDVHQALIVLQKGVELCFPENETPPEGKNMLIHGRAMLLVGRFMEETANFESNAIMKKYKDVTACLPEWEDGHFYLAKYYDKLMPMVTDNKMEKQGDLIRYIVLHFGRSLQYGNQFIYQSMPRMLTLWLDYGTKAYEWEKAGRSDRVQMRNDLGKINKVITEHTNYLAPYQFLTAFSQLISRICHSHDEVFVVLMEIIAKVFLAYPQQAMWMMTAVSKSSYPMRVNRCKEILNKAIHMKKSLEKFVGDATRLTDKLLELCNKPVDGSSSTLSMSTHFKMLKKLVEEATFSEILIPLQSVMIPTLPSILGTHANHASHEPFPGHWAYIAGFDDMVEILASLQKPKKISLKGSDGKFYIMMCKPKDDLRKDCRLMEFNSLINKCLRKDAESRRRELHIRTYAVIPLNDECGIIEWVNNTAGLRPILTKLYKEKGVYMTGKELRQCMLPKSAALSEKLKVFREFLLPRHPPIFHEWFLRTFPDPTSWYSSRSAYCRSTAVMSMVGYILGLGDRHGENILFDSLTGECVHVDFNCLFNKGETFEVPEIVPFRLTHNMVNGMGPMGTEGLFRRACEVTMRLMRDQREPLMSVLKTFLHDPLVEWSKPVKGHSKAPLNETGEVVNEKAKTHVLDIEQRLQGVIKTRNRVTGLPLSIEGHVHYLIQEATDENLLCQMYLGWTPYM
pKi: −log10 of the molar value.
We begin with a simple list: items and their reported pKi.

Any idea what pKi was measured for CC(C)S(=O)(=O)c1ccc(-c2cnc3[nH]cc(C(=O)Nc4cccc(C(N)=O)c4)c3n2)cc1 [Compound I-36] ? > 7.00

Any idea what pKi was measured for CC(C)S(=O)(=O)c1ccc(-c2cnc3[nH]cc(C(=O)Nc4cccc(CO)c4)c3n2)cc1 [Compound I-26] ? > 7.00

Any idea what pKi was measured for CC(C)S(=O)(=O)c1ccc(-c2cnc3[nH]cc(C(=O)NC4CCOC4)c3n2)cc1 (stereo not drawn) [Compound I-118] ? 6.30 to 7.00

Any idea what pKi was measured for Cc1cc(NC(=O)c2c[nH]c3ncc(-c4ccc(S(=O)(=O)C(C)C)cc4)nc23)[nH]n1 [Compound I-55] ? > 7.00

Any idea what pKi was measured for CC(C)S(=O)(=O)c1ccc(-c2cnc3[nH]cc(C(=O)NCC4CCCCC4O)c3n2)cc1 (stereo not drawn) [Compound I-101] ? > 7.00

Any idea what pKi was measured for CC(C)S(=O)(=O)c1ccc(-c2cnc3[nH]cc(C(=O)N4CCCC4CO)c3n2)cc1 (stereo not drawn) [Compound I-40] ? 5.30 to 6.30

* * *

target: ATR kinase (full-length ATR) (Homo sapiens); construct: Assays were carried out at 25° C. in the presence of 5 nM full-length ATR; assay: ATR Inhibition Assay (radioactive-phosphate incorporation); format: biochemical; details: Ki(app); 5 nM full-length ATR, 10 μM ATP, 800 μM target peptide, 25° C.; class symbols; read-out: ATR Inhibition Ki
Assay readout: Ki

Please review the entries below; each comes with its answer.
{"columns": ["Molecule", "Assay result"],
 "data": [
  ["CC(C)S(=O)(=O)c1ccc(-c2cnc3[nH]cc(C(=O)N4CCC(O)C4)c3n2)cc1 (stereo not shown)", "500 to 5000 nM"],
  ["CC(C)S(=O)(=O)c1ccc(-c2cnc3[nH]cc(C(=O)NC4CCOc5ccccc54)c3n2)cc1 (stereo not shown)", "< 100 nM"],
  ["CC(C)S(=O)(=O)c1ccc(-c2cnc3[nH]cc(C(=O)NCc4ccncc4)c3n2)cc1", "100 to 500 nM"],
  ["CC(C)S(=O)(=O)c1ccc(-c2cnc3[nH]cc(C(=O)NCC4CCC(CN)CC4)c3n2)cc1 (stereo not shown)", "100 to 500 nM"],
  ["CC(C)S(=O)(=O)c1ccc(-c2cnc3[nH]cc(C(=O)NC4CNC4)c3n2)cc1", "500 to 5000 nM"]
]}

Any idea what Ki was measured for CC(C)S(=O)(=O)c1ccc(-c2cnc3[nH]cc(C(=O)NCC4(O)CCCCC4)c3n2)cc1 ? < 100 nM

Any idea what Ki was measured for Cc1cccc(NC(=O)c2c[nH]c3ncc(-c4ccc(S(=O)(=O)C(C)C)cc4)nc23)c1 ? 500 to 5000 nM

* * *

target: ATR kinase (full-length ATR) (Homo sapiens); construct: Assays were carried out at 25° C. in the presence of 5 nM full-length ATR; assay: ATR Inhibition Assay (radioactive-phosphate incorporation); format: biochemical; conditions: Ki(app); 5 nM full-length ATR, 10 μM ATP, 800 μM target peptide, 25° C.; given as numeric lower bound without unit; read-out: ATR Inhibition Ki
Assay readout: Ki

Please review the entries below; each comes with its answer.
{"columns": ["Molecule", "Target", "Ki"],
 "data": [
  ["CC(C)S(=O)(=O)c1ccc(-c2cnc3[nH]cc(C(=O)N(C)c4ccccc4)c3n2)cc1", "ATR kinase (full-length ATR) (Homo sapiens)", "> 250 nM"],
  ["CC(C)S(=O)(=O)c1ccc(-c2cnc3[nH]cc(C(=O)N4CC5CCC(C4)O5)c3n2)cc1", "ATR kinase (full-length ATR) (Homo sapiens)", "> 1000 nM"],
  ["CC(C)S(=O)(=O)c1ccc(-c2cnc3[nH]cc(C(=O)Nc4ccc(C(N)=O)cc4)c3n2)cc1", "ATR kinase (full-length ATR) (Homo sapiens)", "> 250 nM"],
  ["CC(C)S(=O)(=O)c1ccc(-c2cnc3[nH]cc(C(=O)N4CCCC(O)C4)c3n2)cc1 (stereo not shown)", "ATR kinase (full-length ATR) (Homo sapiens)", "> 4000 nM"],
  ["CC(C)S(=O)(=O)c1ccc(-c2cnc3[nH]cc(C(=O)N4CCCC(N(C)C)C4)c3n2)cc1 (stereo not shown)", "ATR kinase (full-length ATR) (Homo sapiens)", "> 4000 nM"]
]}

Please state recorded Ki (tested on ATR kinase (full-length ATR) (Homo sapiens)) of CC(C)S(=O)(=O)c1ccc(-c2cnc3[nH]cc(C(=O)N4CCCNCC4)c3n2)cc1 > 250 nM

Please state recorded Ki (tested on ATR kinase (full-length ATR) (Homo sapiens)) of CC(C)S(=O)(=O)c1ccc(-c2cnc3[nH]cc(C(=O)N4CCCN(C(=O)OC(C)(C)C)CC4)c3n2)cc1 > 40 nM

The reported numbers originate from patent US9096602B2.
